Molecular target: T1, RBFOX1 RRM (Homo sapiens, UniProt Q9NWB1 109-208)
T1 sequence: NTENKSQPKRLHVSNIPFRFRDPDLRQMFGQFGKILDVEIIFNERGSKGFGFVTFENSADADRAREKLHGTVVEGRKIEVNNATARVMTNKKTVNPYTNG
Assay: EMSA; HiTS-Eq, 1 nM pool, 10 min; buffer printed only for the single-RNA assays: 10 mM Tris pH 7.5, 150 mM NaCl, 3.4 mM EDTA, 0.001% NP-40, 30 C
Conditions: tags: His6 N-terminal (pET28a); label: 5' 32P
In all, about 16,000 sequences were measured (“ka relative to ugcaugu”: median about 0.0091, highest 2% from about 0.032 on). The sample as a whole holds a higher share of the highest values than the screen did.
Please provide measured binding signal for the entries that follow.

UGGCUCG (DNA:RNA) RNA: GGGAGACCGGAAUUCAGAUUGUCCUGGCUCGUUAAAUCCCGUCGUAGCCACCA DNA 1: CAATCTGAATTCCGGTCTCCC DNA 2: TGGTGGCTACGACGGGATT    0.0396 KA relative to UGCAUGU

Batch lookup, binding signal per entry.
1. UGCUCCC (DNA:RNA) RNA: GGGAGACCGGAAUUCAGAUUGUCCUGCUCCCUUAAAUCCCGUCGUAGCCACCA DNA 1: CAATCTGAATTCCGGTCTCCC DNA 2: TGGTGGCTACGACGGGATT
2. UGGCCCG (DNA:RNA) RNA: GGGAGACCGGAAUUCAGAUUGUCCUGGCCCGUUAAAUCCCGUCGUAGCCACCA DNA 1: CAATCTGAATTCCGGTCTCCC DNA 2: TGGTGGCTACGACGGGATT
3. GUGCUCG (DNA:RNA) RNA: GGGAGACCGGAAUUCAGAUUGUCCGUGCUCGUUAAAUCCCGUCGUAGCCACCA DNA 1: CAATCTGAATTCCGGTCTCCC DNA 2: TGGTGGCTACGACGGGATT

Outgoing:
["0.00242 KA relative to UGCAUGU", "0.0217 KA relative to UGCAUGU", "0.0432 KA relative to UGCAUGU"]
